From: patent EP4696691A1

- Assay System: IRAK4-HiBiT fusion protein (Homo sapiens, UniProt Q9NWZ3)
- Construct: K562 from ATCC
- Assay Procedure: Detection of HiBiT-IRAK4 proteolysis levels in K562 IRAK4-HiBiT cells (Nano-Glo HiBiT Lytic assay)
- Assay type: cell-based
- Measurement Conditions: 2 h incubation, read-out: Absolute DC50
Endpoint Label: DC50 (nM)

CC(C)(O)c1cc2nn([C@H]3CC[C@H](CCN4CCN5c6ccc(C7CCC(=O)NC7=O)cc6OC[C@@H]5C4)CC3)cc2cc1NC(=O)c1cccc(C(F)(F)F)n1 (some centres unmarked); 0.42
CC(C)(O)c1cc2nn([C@H]3CC[C@H](CCN4CCN5c6ccc(C7CCC(=O)NC7=O)cc6OC[C@H]5C4)CC3)cc2cc1NC(=O)c1cccc(C(F)(F)F)n1 (some centres unmarked); 0.54
CC(C)(O)c1cc2nn([C@H]3CC[C@H](CCN4CCN5c6ccc(C7(C)CCC(=O)NC7=O)cc6OC[C@H]5C4)CC3)cc2cc1NC(=O)c1cccc(C(F)(F)F)n1 (single isomer, unassigned); 23.7

(I) CC(C)Oc1cc2nc([C@H]3CC[C@H](CCN4CCN5c6ccc(C7CCC(=O)NC7=O)cc6OCC5C4)CC3)cn2cc1C(=O)Nc1cnn2cccnc12 (some centres unmarked)
(II) CC(C)(O)c1cc2nn(C3CCN(CCN4CCN5c6ccc(C7CCC(=O)NC7=O)cc6OCC5C4)CC3)cc2cc1NC(=O)c1cccc(C(F)(F)F)n1 (centres unmarked)
Q: Lower DC50: I or II ? Your choice should be expressed through its label.
A: I

###

- Assay Procedure: Pharmacokinetic behavior in mice (plasma concentration by LC-MS/MS)
- Format: in vivo
- Measurement Conditions: male ICR mice, Intragastric administration (5 mg/kg)
Endpoint Label: AUClast (ng·h/mL)

CC(C)(O)c1cc2nn([C@H]3CC[C@H](CCN4CCN5c6ccc(C7CCC(=O)NC7=O)cc6OCC5C4)CC3)cc2cc1NC(=O)c1cccc(C(F)(F)F)n1 (stereo partly shown) [Compound 1]; 82491

(a) CC(C)(O)c1cc2nn([C@H]3CC[C@H](CCN4CCN5c6ccc(C7CCC(=O)NC7=O)cc6OC[C@@H]5C4)CC3)cc2cc1NC(=O)c1cccc(C(F)(F)F)n1 (stereo partly shown) [Compound 1-a]
(b) COc1cc2nn([C@H]3CC[C@H](CCN4CCC5(CC4)OCc4cc(C6CCC(=O)NC6=O)ccc45)CC3)cc2cc1NC(=O)c1cccc(C(F)(F)F)n1 (stereo partly shown) [Compound 46]
(c) CC(C)(O)c1cc2nn([C@H]3CC[C@H](CCN4CCN5c6ccc(C7CCC(=O)NC7=O)cc6OC[C@H]5C4)CC3)cc2cc1NC(=O)c1cccc(C(F)(F)F)n1 (stereo partly shown) [Compound 1-b]
Q: Ascending by AUClast, please: list the compounds accordingly. Labels, requested order.
A: b, a, c

###

- Assay System: IRAK4-HiBiT fusion protein (Homo sapiens, UniProt Q9NWZ3)
- Construct: K562 from ATCC
- Sequence (Q9NWZ3 1-460): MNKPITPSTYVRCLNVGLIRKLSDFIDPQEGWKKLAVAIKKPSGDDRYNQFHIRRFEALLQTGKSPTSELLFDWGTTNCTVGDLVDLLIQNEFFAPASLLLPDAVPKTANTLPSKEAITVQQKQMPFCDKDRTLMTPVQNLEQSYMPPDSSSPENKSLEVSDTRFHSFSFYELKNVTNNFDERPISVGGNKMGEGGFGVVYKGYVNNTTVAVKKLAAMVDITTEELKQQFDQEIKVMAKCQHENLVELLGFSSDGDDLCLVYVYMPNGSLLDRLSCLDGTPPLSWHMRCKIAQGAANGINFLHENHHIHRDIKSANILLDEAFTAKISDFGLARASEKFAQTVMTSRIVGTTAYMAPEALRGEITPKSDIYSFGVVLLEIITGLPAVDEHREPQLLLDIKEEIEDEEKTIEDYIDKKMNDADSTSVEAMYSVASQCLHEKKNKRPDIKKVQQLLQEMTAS
- Assay Procedure: Detection of HiBiT-IRAK4 proteolysis levels in K562 IRAK4-HiBiT cells (Nano-Glo HiBiT Lytic assay)
- Type: cell-based
- Measurement Conditions: 2 h incubation, read-out: Relative DC50
Endpoint Label: DC50 (nM)

Please review the entries below; each comes with its answer.
CC(C)Oc1cc2nc([C@H]3CC[C@H](CCN4CCN5c6ccc(C7CCC(=O)NC7=O)cc6OCC5C4)CC3)cn2cc1C(=O)Nc1cnn2cccnc12 (stereo partly shown); 17.6
[2H]C1(c2ccc3c(c2)OCC2CN(CCC4CCC(n5cc6cc(NC(=O)c7cccc(C(F)(F)F)n7)c(C(C)(C)O)cc6n5)CC4)CCN32)CCC(=O)NC1=O (stereo not shown); 4.28
CC(C)(O)c1cc2nn([C@H]3CC[C@H](CCN4CCC5(CC4)OC(=O)c4cc(C6CCC(=O)NC6=O)ccc45)CC3)cc2cc1NC(=O)c1cccc(C(F)(F)F)n1 (stereo partly shown); 0.93
CN1C(=O)C2(CCN(CC[C@H]3CC[C@H](n4cc5cc(NC(=O)c6cccc(C(F)(F)F)n6)c(C(C)(C)O)cc5n4)CC3)CC2)c2ccc(C3CCC(=O)NC3=O)cc21 (stereo partly shown); 10.8
CC(C)(O)c1cc2nn(C3CCN(CCN4CCN5c6ccc(C7CCC(=O)NC7=O)cc6OCC5C4)CC3)cc2cc1NC(=O)c1cccc(C(F)(F)F)n1 (stereo not shown); 13.5

(1) CC(C)(O)c1cc2nn([C@H]3CC[C@H](CCN4CCN5c6ccc(C7(C)CCC(=O)NC7=O)cc6OCC5C4)CC3)cc2cc1NC(=O)c1cccc(C(F)(F)F)n1 (stereo partly shown)
(2) CC(C)(O)c1cc2nn([C@H]3CC[C@H](CCN4CCN5c6ccc(C7CCC(=O)NC7=O)cc6OC[C@@H]5C4)CC3)cc2cc1NC(=O)c1cccc(C(F)(F)F)n1 (stereo partly shown)
Q: Lower DC50: 1 or 2 ? Your choice should be expressed through its label.
A: 2
(2: 0.58 nM, 1: 27.8 nM)

(a) CC(C)(O)c1cc2nn([C@H]3CC[C@H](CCN4CCN5c6ccc(C7CCC(=O)NC7=O)cc6OC[C@H]5C4)CC3)cc2cc1NC(=O)c1cccc(C(F)(F)F)n1 (stereo partly shown)
(b) CC(C)(O)c1cc2nn([C@H]3CC[C@H](CCN4CCN5c6c(F)cc(C7CCC(=O)NC7=O)cc6OCC5C4)CC3)cc2cc1NC(=O)c1cccc(C(F)(F)F)n1 (stereo partly shown)
(c) CC(C)(O)c1cc2nn(C3CCC(CCN4CCN5c6c(F)cc(NC7CCC(=O)NC7=O)cc6OCC5C4)CC3)cc2cc1NC(=O)c1cccc(C(F)(F)F)n1 (stereo not shown)
(d) CC(C)(O)c1cc2nn([C@H]3CC[C@H](CCN4CCN5c6ccc(C7CCC(=O)NC7=O)cc6CCC5C4)CC3)cc2cc1NC(=O)c1cccc(C(F)(F)F)n1 (stereo partly shown)
Q: Ranking field: DC50; order: falling. Labels, requested order.
A: c, b, d, a
(c: 16.1 nM, b: 8.71 nM, d: 1.02 nM, a: 0.71 nM)

(A) CC(C)(O)c1cc2nn([C@H]3CC[C@H](CCN4CCN5c6ccc(N7CCC(=O)NC7=O)cc6CCC5C4)CC3)cc2cc1NC(=O)c1cccc(C(F)(F)F)n1 (stereo partly shown)
(B) CC(C)(O)c1cc2nn([C@H]3CC[C@H](CCN4CCN5c6ccc(C7(C)CCC(=O)NC7=O)cc6OC[C@H]5C4)CC3)cc2cc1NC(=O)c1cccc(C(F)(F)F)n1 (single isomer, unassigned)
Q: Lower DC50: A or B ? Your choice should be expressed through its label.
A: A
(A: 0.96 nM, B: 21.4 nM)
